Quick list: Sandbur plant response rating per entry.
- System: sandbur
- test.details: Test E preemergence
- Assay type: in vivo, Cenchrus echinatus
- condition.description: 16 g ai/ha, scale 0 to 100 (0 no effect, 100 complete control)
attribute.measured: Sandbur plant response rating

- sample.smiles: "Clc1cnc(Oc2ccccc2-n2cc(Br)cn2)nc1"
  observed.measurement: 0
- sample.smiles: "N#Cc1cccc(Oc2ncc(Br)cn2)c1-n1cc(C(F)(F)F)cn1"
  observed.measurement: 0
- sample.smiles: "FC(F)(F)c1cnn(-c2ccccc2Oc2ncc(Br)cn2)c1"
  observed.measurement: 0
- sample.smiles: "N#Cc1cccc(Oc2ncc(Cl)cn2)c1-n1cc(C(F)(F)F)cn1"
  observed.measurement: 0
- sample.smiles: "N#Cc1cccc(Oc2ncc(F)cn2)c1-n1cc(Cl)cn1"
  observed.measurement: 10
- sample.smiles: "FC(F)(F)COc1cnn(-c2ccccc2Oc2ncc(Cl)cn2)c1"
  observed.measurement: 0

* * *

Measured Plant response rating, Ducksalad, listed per entry.
- Test system: Heteranthera limosa
- test.details: Test B flooded paddy test
- Format: in vivo
- condition.description: Flood, 250 g ai/ha; 0 to 100 scale where 0 is no effect and 100 is complete control
- Description: Plant species in the flooded paddy test selected from rice (Oryza sativa), sedge, umbrella (small-flower umbrella sedge, Cyperus difformis), (Heteranthera limosa), and barnyardgrass (Echinochloa crus-galli) were grown to the 2-leaf stage for testing. […] Treated plants and controls were maintained in a greenhouse for 13 to 15 days, after which time all species were compared to controls and visually evaluated. […]

- molecule: "N#Cc1cccc(Oc2ncc(Br)cn2)c1-n1cccn1 [Compound 165]"
  Plant response rating, Ducksalad: 0
- molecule: "N#Cc1cnn(-c2c(C#N)cccc2Oc2ncc(F)cn2)c1 [Compound 111]"
  Plant response rating, Ducksalad: 70
- molecule: "CC(=O)c1cccc(Oc2ncc(Cl)cn2)c1-n1cc(Br)cn1 [Compound 96]"
  Plant response rating, Ducksalad: 0
- molecule: "N#Cc1cccc(Oc2ncc(F)cn2)c1-n1cc(Cl)cn1 [Compound 73]"
  Plant response rating, Ducksalad: 70
- molecule: "N#Cc1cnn(-c2c(C#N)cccc2Oc2ncc(I)cn2)c1 [Compound 91]"
  Plant response rating, Ducksalad: 0
- molecule: "Clc1cnc(Oc2ccccc2-n2ccnn2)nc1 [Compound 217]"
  Plant response rating, Ducksalad: 0
- molecule: "CC(C)Cc1cn(-c2c(F)cccc2Oc2ncc(Cl)cn2)nn1 [Compound 107]"
  Plant response rating, Ducksalad: 40
- molecule: "Clc1cnc(Oc2ccccc2-n2cccc2)nc1 [Compound 269]"
  Plant response rating, Ducksalad: 0
- molecule: "Cc1cc(C)n(-c2ccccc2Oc2ncc(Cl)cn2)n1 [Compound 264]"
  Plant response rating, Ducksalad: 0
- molecule: "CS(=O)(=O)c1cccc(Oc2ncc(Cl)cn2)c1-n1cc(Br)cn1 [Compound 142]"
  Plant response rating, Ducksalad: 0

* * *

# reported Plant response rating, Crabgrass, Brazil; entries follow
- Test system: Brazilian crabgrass
- test.details: Test E preemergence
- Type: in vivo, Digitaria horizontalis
- condition.description: 125 g ai/ha, scale 0 to 100, 0 no effect, 100 complete control
attribute.measured: Plant response rating, Crabgrass, Brazil

- sample.smiles: "N#Cc1cccc(Oc2ncc(Cl)cn2)c1-n1cc(C(F)(F)F)cn1"
  test.target: "Brazilian crabgrass"
  observed.measurement: 100
- sample.smiles: "N#Cc1cccc(Oc2ncc(Br)cn2)c1-n1cc(I)cn1"
  test.target: "Brazilian crabgrass"
  observed.measurement: 60
- sample.smiles: "FC(F)(F)c1cnn(-c2ccccc2Oc2ncc(Br)cn2)c1"
  test.target: "Brazilian crabgrass"
  observed.measurement: 100
- sample.smiles: "N#Cc1cccc(Oc2ncc(F)cn2)c1-n1cc(Cl)cn1"
  test.target: "Brazilian crabgrass"
  observed.measurement: 100
- sample.smiles: "N#Cc1cccc(Oc2ncc(F)cn2)c1-n1cc(I)cn1"
  test.target: "Brazilian crabgrass"
  observed.measurement: 95
- sample.smiles: "Clc1cnc(Oc2ccccc2-n2cc(Br)cn2)nc1"
  test.target: "Brazilian crabgrass"
  observed.measurement: 100
- sample.smiles: "N#Cc1cccc(Oc2ncc(Br)cn2)c1-n1cc(C(F)(F)F)cn1"
  test.target: "Brazilian crabgrass"
  observed.measurement: 100
